The values you see were collected from ChEMBL document CHEMBL3507680.

assayNotes: Human HepG2 cell viability assay in 384 well format
Type: toxicity, cell-based
Parameters: dose 125 nL, time 70.5 hour; concentration not given beside the values
measurementConditions: HepG2 cells, read-out: Inhibition
This listing pairs compounds with measured cytotoxicity at 70.5 h.
Please give a number only; it is taken to be in %.

Observe how each entry below is paired with its result.
>  <compound>
Cc1cnn(CCNCC(=O)NCCOc2ccc(F)cc2)c1

>  <cytotoxicity at 70.5 h, %>
-9.5

$$$$
>  <compound>
CCC[C@H]1CN(CCS(C)(=O)=O)C[C@@H]1NC(=O)c1cc(CC)on1

>  <cytotoxicity at 70.5 h, %>
-2.15

$$$$
>  <compound>
CCCN(Cc1ccc(S(=O)(=O)NC)cc1)Cc1ccccc1OC

>  <cytotoxicity at 70.5 h, %>
1.33

$$$$
>  <compound>
CN(CCOc1cccc(S(C)(=O)=O)c1)CC(F)F

>  <cytotoxicity at 70.5 h, %>
-10.4

$$$$
>  <compound>
CN(C)C(=O)COCC1CN(S(C)(=O)=O)Cc2ncn(C)c21 (configuration not stated)

>  <cytotoxicity at 70.5 h, %>
-6.55

$$$$
>  <compound>
O=C(NCC(F)(F)F)C1CN(C(=O)c2cnccn2)C1

>  <cytotoxicity at 70.5 h, %>
-9.42

$$$$
>  <compound>
OC(CNCCn1cccn1)COc1ccc(Br)cc1 (configuration not stated)

>  <cytotoxicity at 70.5 h, %>
-5.72

$$$$
>  <compound>
CC(=O)c1c(C)cc(C)c(Cn2ccnc2S(C)(=O)=O)c1C

>  <cytotoxicity at 70.5 h, %>
6.42

$$$$

Record summary for O=C(O)CC1COCCN1CCCc1ccccc1 (configuration not stated) : reported cytotoxicity at 70.5 h = -11.2

Record summary for CC(NC1CCN(C(=O)C2CCCCC2)CC1)c1nccs1 (configuration not stated) : reported cytotoxicity at 70.5 h = -6.15

Record summary for `c1ccc(CC2CCN(Cc3ccnc(-c4cccnc4)n3)CC2)cc1` : reported cytotoxicity at 70.5 h = -3.3

Record summary for CN(CC(=O)N1CCC(Cc2cccc(C(N)=O)c2)C1)C1CCCC1 (configuration not stated) : reported cytotoxicity at 70.5 h = 20.8
